meta.source: patent US10414769B2

Target: PDK1 Direct (Homo sapiens, UniProt O15530)
Sequence (O15530 1-556): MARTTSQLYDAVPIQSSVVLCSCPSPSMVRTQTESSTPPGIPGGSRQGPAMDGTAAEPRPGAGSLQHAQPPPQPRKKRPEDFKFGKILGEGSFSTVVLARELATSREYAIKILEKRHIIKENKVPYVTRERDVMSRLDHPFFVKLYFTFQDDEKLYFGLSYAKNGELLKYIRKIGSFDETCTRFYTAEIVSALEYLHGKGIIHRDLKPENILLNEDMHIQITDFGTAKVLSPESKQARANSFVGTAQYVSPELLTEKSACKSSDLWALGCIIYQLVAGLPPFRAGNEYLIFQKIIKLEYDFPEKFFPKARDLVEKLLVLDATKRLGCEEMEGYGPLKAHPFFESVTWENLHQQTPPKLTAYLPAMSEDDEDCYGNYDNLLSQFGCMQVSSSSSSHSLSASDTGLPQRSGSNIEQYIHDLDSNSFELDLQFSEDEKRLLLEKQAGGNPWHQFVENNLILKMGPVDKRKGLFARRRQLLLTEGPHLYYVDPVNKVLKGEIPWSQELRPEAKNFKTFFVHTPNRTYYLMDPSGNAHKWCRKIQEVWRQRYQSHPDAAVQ
Assay: Z'-LYTE kinase selectivity assay PDK1
Assay type: biochemical
Give inhibition at 1 µM for every item shown.

Observe how each entry below is paired with its result.
1. COCCN1CCN(CCn2ccc(Nc3ncc4c(n3)-c3c(nn(C)c3-c3ccccc3)C[C@H]4C)n2)CC1 [Compound I-11] = 20%
2. C[C@@H]1Cc2nn(C)c(-c3ccccc3)c2-c2nc(Nc3ccn(CCN4CCOCC4)n3)ncc21 [Compound I-2] = 1%

Query molecule follows.
Input: Name the recorded inhibition at 1 µM for CC(O)CN1CCN(CCn2ccc(Nc3ncc4c(n3)-c3c(nn(C)c3-c3ccccc3)C[C@H]4C)n2)CC1 (stereo partly drawn) [Compound I-7] .
Output: 3%

====

biological target: PRKACA (PKA) (Homo sapiens, UniProt P17612); construct: purchased Life Technologies P 2912; assay: Z'-LYTE kinase selectivity assay PRKACA; assay type: biochemical
Assignment: determine reported inhibition at 1 µM for the given molecules.

Below: 3 molecules and their reported inhibition at 1 µM.
1. C[C@@H]1Cc2nn(C)c(-c3ccccc3)c2-c2nc(Nc3ccn(CCN4CCN(CC(=O)OC5CCOCC5)CC4)n3)ncc21 [Compound I-8] = 16%
2. C[C@@H]1Cc2nn(C)c(-c3ccccc3)c2-c2nc(Nc3ccn(CCN4CCOCC4)n3)ncc21 [Compound I-2] = 22%
3. COCCN1CCN(CCn2ccc(Nc3ncc4c(n3)-c3c(nn(C)c3-c3ccccc3)C[C@H]4C)n2)CC1 [Compound I-11] = -3%

# per-item lookup of inhibition at 1 µM; items listed below
1. C[C@@H]1Cc2nn(C)c(-c3ccccc3)c2-c2nc(Nc3ccn(CCN4CCN(C)CC4)n3)ncc21 [Compound I-1]
2. C[C@@H]1Cc2nn(C)c(-c3ccccc3)c2-c2nc(Nc3ccn(CCN4CCN(CC5CCCO5)CC4)n3)ncc21 (stereo partly shown) [Compound I-9]
3. CC(O)CN1CCN(CCn2ccc(Nc3ncc4c(n3)-c3c(nn(C)c3-c3ccccc3)C[C@H]4C)n2)CC1 (stereo partly shown) [Compound I-7]

Output:
-5%
17%
16%

Input: Tell me the measured inhibition at 1 µM of C[C@@H]1Cc2nn(C)c(-c3ccccc3)c2-c2nc(Nc3ccn(CCN4CCN(CC(C)(C)O)CC4)n3)ncc21 [Compound I-3] , please.
Output: 13%

====

target: SRPK2 (Homo sapiens); construct: purchased Life Technologies PV 3829; experiment: Z'-LYTE kinase selectivity assay SRPK2; format: biochemical
Sequence (P78362 whole entry): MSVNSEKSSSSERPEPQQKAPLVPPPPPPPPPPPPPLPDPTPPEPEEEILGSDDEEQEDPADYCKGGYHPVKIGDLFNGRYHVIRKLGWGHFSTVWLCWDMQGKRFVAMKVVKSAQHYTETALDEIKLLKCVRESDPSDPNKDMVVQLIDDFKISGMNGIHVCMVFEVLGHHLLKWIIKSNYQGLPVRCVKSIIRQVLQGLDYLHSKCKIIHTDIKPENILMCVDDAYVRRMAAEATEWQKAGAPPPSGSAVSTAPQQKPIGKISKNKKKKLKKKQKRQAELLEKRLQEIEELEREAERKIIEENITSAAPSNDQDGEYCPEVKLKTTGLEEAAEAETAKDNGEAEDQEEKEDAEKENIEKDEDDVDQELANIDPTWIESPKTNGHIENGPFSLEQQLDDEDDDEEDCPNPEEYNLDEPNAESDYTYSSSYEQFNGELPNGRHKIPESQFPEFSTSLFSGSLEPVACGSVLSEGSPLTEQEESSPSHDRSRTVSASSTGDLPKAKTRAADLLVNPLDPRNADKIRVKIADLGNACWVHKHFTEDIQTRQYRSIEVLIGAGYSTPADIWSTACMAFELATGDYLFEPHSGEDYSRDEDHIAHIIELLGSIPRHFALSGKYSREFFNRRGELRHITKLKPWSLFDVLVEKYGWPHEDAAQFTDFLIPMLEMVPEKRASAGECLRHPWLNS
Classify by measured inhibition at 1 µM: 1.0 if it is equal to or exceeds 50%, 0.0 if it is smaller.

1) C[C@@H]1Cc2nn(C)c(-c3ccccc3)c2-c2nc(Nc3ccn(CCN4CCN(CC(=O)OC5CCOCC5)CC4)n3)ncc21 [Compound I-8] = 0.0
2) C[C@@H]1Cc2nn(C)c(-c3ccccc3)c2-c2nc(Nc3ccn(CCN4CCN(C)CC4)n3)ncc21 [Compound I-1] = 1.0
3) CC(O)CN1CCN(CCn2ccc(Nc3ncc4c(n3)-c3c(nn(C)c3-c3ccccc3)C[C@H]4C)n2)CC1 (stereo partly shown) [Compound I-7] = 1.0

Input: Check the entry COCCN1CCN(CCn2ccc(Nc3ncc4c(n3)-c3c(nn(C)c3-c3ccccc3)C[C@H]4C)n2)CC1 [Compound I-11] : does inhibition at 1 µM equal or exceed 50%?
Output: 0.0

Input: Record: C[C@@H]1Cc2nn(C)c(-c3ccccc3)c2-c2nc(Nc3ccn(CCN4CCOCC4)n3)ncc21 [Compound I-2]
Output: 1.0

====

target: PDK1 Direct (Homo sapiens, UniProt O15530); experiment: Z'-LYTE kinase selectivity assay PDK1; format: biochemical
measurement_label: inhibition at 1 µM (%)
Numbers only, in %.

1) C[C@@H]1Cc2nn(C)c(-c3ccccc3)c2-c2nc(Nc3ccn(CCN4CCN(CC5CCCO5)CC4)n3)ncc21 (stereo partly shown) = 6

State recorded inhibition at 1 µM for all listed compounds.
1. C[C@@H]1Cc2nn(C)c(-c3ccccc3)c2-c2nc(Nc3ccn(CCN4CCN(CC(=O)OC5CCOCC5)CC4)n3)ncc21
2. C[C@@H]1Cc2nn(C)c(-c3ccccc3)c2-c2nc(Nc3ccn(CCN4CCN(C)CC4)n3)ncc21
3. C[C@@H]1Cc2nn(C)c(-c3ccccc3)c2-c2nc(Nc3ccn(CCN4CCN(CC(C)(C)O)CC4)n3)ncc21

Output:
1. 5
2. -2
3. 9

====

Please provide measured inhibition at 1 µM for the entries that follow.
Target: STK3 (MST2) (Homo sapiens)
Construct: purchased Life Technologies PV 4805
Sequence (Q13188 1-491): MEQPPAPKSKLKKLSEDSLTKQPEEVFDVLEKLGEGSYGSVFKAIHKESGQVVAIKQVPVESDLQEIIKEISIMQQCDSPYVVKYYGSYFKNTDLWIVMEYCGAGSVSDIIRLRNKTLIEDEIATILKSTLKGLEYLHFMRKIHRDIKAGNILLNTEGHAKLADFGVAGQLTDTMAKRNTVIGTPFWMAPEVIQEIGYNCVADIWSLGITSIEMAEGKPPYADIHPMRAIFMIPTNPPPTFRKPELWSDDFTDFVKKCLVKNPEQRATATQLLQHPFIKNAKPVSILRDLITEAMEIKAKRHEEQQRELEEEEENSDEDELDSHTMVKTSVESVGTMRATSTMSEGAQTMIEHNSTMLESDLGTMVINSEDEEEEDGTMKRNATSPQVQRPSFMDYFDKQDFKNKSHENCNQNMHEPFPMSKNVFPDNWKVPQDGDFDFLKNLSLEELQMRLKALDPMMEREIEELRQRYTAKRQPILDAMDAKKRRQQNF
Assay: Z'-LYTE kinase selectivity assay STK3
Format: biochemical
Give bare numbers, in %.

1) COCCN1CCN(CCn2ccc(Nc3ncc4c(n3)-c3c(nn(C)c3-c3ccccc3)C[C@H]4C)n2)CC1 = -2
2) C[C@@H]1Cc2nn(C)c(-c3ccccc3)c2-c2nc(Nc3ccn(CCN4CCN(CC5CCCO5)CC4)n3)ncc21 (stereo partly shown) = -15
3) CC(O)CN1CCN(CCn2ccc(Nc3ncc4c(n3)-c3c(nn(C)c3-c3ccccc3)C[C@H]4C)n2)CC1 (stereo partly shown) = 15

Hi team, please reply with inhibition at 1 µM for each item in this list.
1. C[C@@H]1Cc2nn(C)c(-c3ccccc3)c2-c2nc(Nc3ccn(CCN4CCOCC4)n3)ncc21
2. C[C@@H]1Cc2nn(C)c(-c3ccccc3)c2-c2nc(Nc3ccn(CCN4CCN(C)CC4)n3)ncc21
3. C[C@@H]1Cc2nn(C)c(-c3ccccc3)c2-c2nc(Nc3ccn(CCN4CCN(CC(=O)OC5CCOCC5)CC4)n3)ncc21
4. C[C@@H]1Cc2nn(C)c(-c3ccccc3)c2-c2nc(Nc3ccn(CCN4CCN(CC(C)(C)O)CC4)n3)ncc21

Output:
1. 5
2. 1
3. -1
4. -1

====

molecular target: ROCK2 (Homo sapiens); construct: purchased Life Technologies PV 3759; experiment: Z'-LYTE kinase selectivity assay ROCK2; format: biochemical
Sequence (O75116 whole entry): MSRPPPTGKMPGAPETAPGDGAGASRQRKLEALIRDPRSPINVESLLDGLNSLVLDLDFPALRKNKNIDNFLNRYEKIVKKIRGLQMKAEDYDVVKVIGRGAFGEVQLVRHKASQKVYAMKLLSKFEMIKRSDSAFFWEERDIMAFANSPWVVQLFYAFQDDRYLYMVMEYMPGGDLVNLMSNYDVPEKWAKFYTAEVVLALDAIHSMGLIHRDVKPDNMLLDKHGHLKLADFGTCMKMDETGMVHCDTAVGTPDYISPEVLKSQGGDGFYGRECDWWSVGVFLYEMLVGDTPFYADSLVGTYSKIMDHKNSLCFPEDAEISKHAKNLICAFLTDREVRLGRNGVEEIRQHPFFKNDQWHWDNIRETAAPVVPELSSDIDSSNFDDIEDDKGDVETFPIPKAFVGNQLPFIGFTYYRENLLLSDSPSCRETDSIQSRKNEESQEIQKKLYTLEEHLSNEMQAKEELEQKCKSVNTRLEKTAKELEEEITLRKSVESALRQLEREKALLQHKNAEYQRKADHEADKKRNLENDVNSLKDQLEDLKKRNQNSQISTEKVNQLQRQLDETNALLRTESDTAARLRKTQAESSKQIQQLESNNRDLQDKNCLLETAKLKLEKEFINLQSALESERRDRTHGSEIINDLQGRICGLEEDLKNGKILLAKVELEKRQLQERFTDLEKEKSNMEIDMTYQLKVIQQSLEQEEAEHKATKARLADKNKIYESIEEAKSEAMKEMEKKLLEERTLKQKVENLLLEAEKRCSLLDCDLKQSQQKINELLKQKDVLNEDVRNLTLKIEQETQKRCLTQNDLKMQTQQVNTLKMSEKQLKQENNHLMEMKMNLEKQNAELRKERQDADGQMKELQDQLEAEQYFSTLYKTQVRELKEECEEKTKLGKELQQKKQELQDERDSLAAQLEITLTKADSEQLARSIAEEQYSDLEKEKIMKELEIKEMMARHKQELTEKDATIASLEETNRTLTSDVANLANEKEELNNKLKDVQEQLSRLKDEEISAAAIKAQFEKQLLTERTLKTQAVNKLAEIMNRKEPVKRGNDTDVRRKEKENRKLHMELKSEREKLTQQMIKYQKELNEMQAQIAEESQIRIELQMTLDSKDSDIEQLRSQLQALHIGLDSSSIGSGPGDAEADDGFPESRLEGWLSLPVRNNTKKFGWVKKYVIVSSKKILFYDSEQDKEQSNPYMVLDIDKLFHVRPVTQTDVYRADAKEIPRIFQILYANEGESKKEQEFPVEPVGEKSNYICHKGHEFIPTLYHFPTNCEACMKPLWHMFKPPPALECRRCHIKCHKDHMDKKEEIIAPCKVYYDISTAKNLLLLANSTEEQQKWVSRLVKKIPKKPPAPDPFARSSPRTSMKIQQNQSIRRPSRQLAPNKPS
measurement_label: inhibition at 1 µM (%)
Answers are plain numbers, in %.

1) C[C@@H]1Cc2nn(C)c(-c3ccccc3)c2-c2nc(Nc3ccn(CCN4CCN(CC(=O)OC5CCOCC5)CC4)n3)ncc21 = 7
2) C[C@@H]1Cc2nn(C)c(-c3ccccc3)c2-c2nc(Nc3ccn(CCN4CCN(C)CC4)n3)ncc21 = 1
3) CC(O)CN1CCN(CCn2ccc(Nc3ncc4c(n3)-c3c(nn(C)c3-c3ccccc3)C[C@H]4C)n2)CC1 (stereo partly shown) = 9

Consider the additional molecule presented here.
Input: Query (molecule): COCCN1CCN(CCn2ccc(Nc3ncc4c(n3)-c3c(nn(C)c3-c3ccccc3)C[C@H]4C)n2)CC1 ; field requested: inhibition at 1 µM
Output: 9
